Answer each item with its documented Ki.
target: Rat SERT (Rattus norvegicus, UniProt P31652); construct: A rat brain without cerebellum (Zivic Laboratories, Inc.—Pittsburgh, Pa.) was homogenized; tissue Zivic Laboratories, Inc; host or cells: rat brain without cerebellum, membranes; test: Rat brain SERT binding ([3H]-Citalopram displacement); settings: rat brain membranes, 0.6 nM [3H]-Citalopram; read-out: Rat SERT Ki
Sequence (P31652 whole entry): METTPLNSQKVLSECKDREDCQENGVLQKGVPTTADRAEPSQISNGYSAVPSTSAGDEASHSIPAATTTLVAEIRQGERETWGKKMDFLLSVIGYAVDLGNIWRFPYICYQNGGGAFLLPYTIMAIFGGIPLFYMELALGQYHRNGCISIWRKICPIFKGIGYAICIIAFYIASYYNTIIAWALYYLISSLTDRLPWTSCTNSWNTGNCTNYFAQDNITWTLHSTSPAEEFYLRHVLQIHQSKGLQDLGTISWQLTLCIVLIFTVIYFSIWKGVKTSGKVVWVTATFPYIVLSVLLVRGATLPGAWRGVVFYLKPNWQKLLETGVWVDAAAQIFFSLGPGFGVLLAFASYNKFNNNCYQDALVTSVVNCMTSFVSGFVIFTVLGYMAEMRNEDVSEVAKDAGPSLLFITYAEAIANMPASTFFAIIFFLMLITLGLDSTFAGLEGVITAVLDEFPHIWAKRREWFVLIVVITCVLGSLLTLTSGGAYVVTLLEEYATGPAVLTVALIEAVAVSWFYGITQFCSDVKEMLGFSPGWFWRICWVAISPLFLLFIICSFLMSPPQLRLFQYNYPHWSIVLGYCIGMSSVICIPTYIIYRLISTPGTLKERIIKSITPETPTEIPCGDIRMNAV
Write the value in nM as a bare number.

What value of Ki has been reported for the following compound? Oc1ccc([C@@H]2CN3CCC[C@H]3c3cccc(OCCCN4CCCCC4)c32)cc1 (relative stereo) [Example 9B]
6000

Would you mind telling me what Ki value was observed for N#Cc1ccc([C@H]2CN3CCC[C@H]3c3cc(OCCCN4CCCCC4)ccc32)cc1 (relative stereo) [Example 41B] ?
6

// lookup Ki for COc1ccc([C@H]2CN3CCC[C@H]3c3cc(OCCCN4CCOC[C@@H]4C)ccc32)cc1 [Example 46]
14

Item under review: COc1cccc([C@@H]2CN3CCC[C@H]3c3cccc(OCCCN4CCCCC4)c32)c1 (relative stereo) [Example 10C] . Reported Ki?
2000

Param item = CN(C)c1ccc([C@H]2CN3CCC[C@H]3c3cc(OCCCN4CCCCC4)ccc32)cc1 (relative stereo) [Example 30] ; retrieve measured Ki.
3

What value of measured Ki is listed for COc1ccc([C@H]2CN3CCC[C@@H]3c3cc(OCCCN4CCOCC4)ccc32)cc1 [Example 94] ?
53

Requested field: Ki. Item: COc1ccc([C@H]2CN3CCC[C@H]3c3cc(OCCCN4CCOCC4)ccc32)cc1 [Example 91]
60

For the compound shown here, Clc1cccc([C@H]2CN3CCC[C@H]3c3cc(OCCCN4CCCCC4)ccc32)c1 (relative stereo) [Example 11B] , give the reported Ki.
91

Request the reported Ki associated with Clc1cccc([C@@H]2CN3CCC[C@H]3c3cc(OCCCN4CCCCC4)ccc32)c1 (relative stereo) [Example 11A]
4

Would you kindly share the measured Ki for CSc1ccc(C2CN3CCCC3c3cccc(OCCCN4CCCCC4)c32)cc1 (stereo not drawn) [Example 39C] ?
69

Looking for the measured Ki of CSc1ccc([C@H]2CN3CCC[C@H]3c3cc(OCCCN4CCOCC4)ccc32)cc1 [Example 90] , can you help?
24

Look up Ki for this compound: O=[N+]([O-])c1cccc([C@@H]2CN3CCC[C@H]3c3cccc(OCCCN4CCCCC4)c32)c1 (relative stereo) [Example 4D]
154

Record request: Ki value, item COc1ccc([C@H]2CN3CCC[C@H]3c3cc(OC4CCN(C(C)C)CC4)ccc32)cc1 (relative stereo) [Example 28]
4

Returns the measured Ki for the input compound. Input: COc1cccc([C@H]2CN3CCC[C@H]3c3cc(OCCCN4CCCCC4)ccc32)c1 (relative stereo) [Example 10A]
5

I am curious: what Ki value has been reported for FC(F)(F)c1ccc([C@@H]2CN3CCC[C@H]3c3cc(OCCCN4CCCCC4)ccc32)cc1 (relative stereo) [Example 7A] ?
27
